Data origin, for the record: BindingDB's records for doi:10.1016/j.bioorg.2015.09.004

Biological target: Alpha-glucosidase MAL12 (Saccharomyces cerevisiae (strain ATCC 204508 / S288c))
Sequence (P53341 whole entry): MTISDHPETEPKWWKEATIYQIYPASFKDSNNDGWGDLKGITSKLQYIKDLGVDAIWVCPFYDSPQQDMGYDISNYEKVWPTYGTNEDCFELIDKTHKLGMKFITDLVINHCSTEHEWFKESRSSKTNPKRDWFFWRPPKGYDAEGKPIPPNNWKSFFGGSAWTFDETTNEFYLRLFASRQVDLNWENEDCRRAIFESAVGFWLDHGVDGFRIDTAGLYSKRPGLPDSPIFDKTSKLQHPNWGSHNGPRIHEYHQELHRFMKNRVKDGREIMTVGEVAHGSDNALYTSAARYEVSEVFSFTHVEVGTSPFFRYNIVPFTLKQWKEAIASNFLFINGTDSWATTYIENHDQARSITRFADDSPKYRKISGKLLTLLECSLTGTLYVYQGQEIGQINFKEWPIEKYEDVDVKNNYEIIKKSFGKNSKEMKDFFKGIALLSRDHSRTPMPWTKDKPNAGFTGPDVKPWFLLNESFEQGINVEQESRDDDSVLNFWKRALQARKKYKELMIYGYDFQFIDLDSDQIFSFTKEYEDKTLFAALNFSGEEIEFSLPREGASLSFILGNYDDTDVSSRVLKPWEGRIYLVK
Experiment: Baker's Yeast alpha-Glucosidase Inhibition Assay
Details: pH 6.8; 37 °C
Procedure: The enzyme inhibition was evaluated according to the method previously reported by Taha et al. with slight modification. […] Afterward, 25 uL of PNPG in phosphate buffer saline (5 mM) were added and pre-read of the plate was taken by using a microplate reader (Spectrostar Nano BMG Labtech, Germany). The reaction mixture was then incubated at 37 °C for 30 min and change in absorbance at 405 nm was monitored up to 30 min. […]
Hi! Could you tag entries with IC50 below 40 µM as Condition met, and those at or above as Condition not met? Much appreciated.

Qu. Is the reported IC50 for O=c1oc2ccccc2c(O)c1C(c1ccc(NC(=S)Nc2ccc([N+](=O)[O-])cc2)cc1)c1c(O)c2ccccc2oc1=O strictly below 40 µM?
Ans. Condition met

Qu. Dear reviewer, please state whether O=c1oc2ccccc2c(O)c1C(c1ccc(NC(=S)Nc2cccc(Br)c2)cc1)c1c(O)c2ccccc2oc1=O has IC50 strictly beneath 40 µM.
Ans. Condition met

Qu. Hello, I'm reviewing records and need to know if IC50 of O=c1oc2ccccc2c(O)c1C(c1ccc(NC(=S)Nc2cccc(F)c2)cc1)c1c(O)c2ccccc2oc1=O is below 40 µM. Could you check?
Ans. Condition not met

Qu. Please let me know if O=c1oc2ccccc2c(O)c1C(c1ccc(NC(=S)Nc2ccccc2F)cc1)c1c(O)c2ccccc2oc1=O shows IC50 below 40 µM.
Ans. Condition not met

Qu. Is 40 µM strictly greater than the compound's reported IC50? compound: O=c1oc2ccccc2c(O)c1C(c1ccc(NC(=S)Nc2ccccc2Br)cc1)c1c(O)c2ccccc2oc1=O
Ans. Condition met

Qu. Quick check: IC50 of O=c1oc2ccccc2c(O)c1C(c1ccc(NC(=S)Nc2cccc([N+](=O)[O-])c2)cc1)c1c(O)c2ccccc2oc1=O under 40 µM?
Ans. Condition not met

Qu. For this compound, is IC50 lower than 40 µM? O=c1oc2ccccc2c(O)c1C(c1ccc(NC(=S)Nc2ccc(F)cc2)cc1)c1c(O)c2ccccc2oc1=O
Ans. Condition not met
